Molecular target: T1, RBFOX1 RRM (Homo sapiens, UniProt Q9NWB1 109-208)
T1 sequence: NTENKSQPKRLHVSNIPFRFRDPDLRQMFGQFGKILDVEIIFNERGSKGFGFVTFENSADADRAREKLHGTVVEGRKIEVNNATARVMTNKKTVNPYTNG
Experiment: EMSA; HiTS-Eq, 1 nM pool, 10 min; buffer printed only for the single-RNA assays: 10 mM Tris pH 7.5, 150 mM NaCl, 3.4 mM EDTA, 0.001% NP-40, 30 C
Details: tags: His6 N-terminal (pET28a); label: 5' 32P
Whole data set: some 16,000 sequences, median “ka relative to ugcaugu” near 0.0091, cut for the highest 2% near 0.032. The sample holds the highest values, similar sequences and a random draw of the others, so the mix is not that of the screen.
experimentalReadout: binding signal

Known binding signal results, listed for orientation:
UUGCCCG (DNA:RNA) RNA: GGGAGACCGGAAUUCAGAUUGUCCUUGCCCGUUAAAUCCCGUCGUAGCCACCA DNA 1: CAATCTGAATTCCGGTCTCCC DNA 2: TGGTGGCTACGACGGGATT | 0.0225 KA relative to UGCAUGU
UUGCUCC (DNA:RNA) RNA: GGGAGACCGGAAUUCAGAUUGUCCUUGCUCCUUAAAUCCCGUCGUAGCCACCA DNA 1: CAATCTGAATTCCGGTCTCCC DNA 2: TGGTGGCTACGACGGGATT | 0.0158 KA relative to UGCAUGU

The value of binding signal measured for the binder UCCUGCU (DNA:RNA) RNA: GGGAGACCGGAAUUCAGAUUGUCCUCCUGCUUUAAAUCCCGUCGUAGCCACCA DNA 1: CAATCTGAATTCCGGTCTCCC DNA 2: TGGTGGCTACGACGGGATT turned out to be 0.0144 KA relative to UGCAUGU

For UUGCUCG (DNA:RNA) RNA: GGGAGACCGGAAUUCAGAUUGUCCUUGCUCGUUAAAUCCCGUCGUAGCCACCA DNA 1: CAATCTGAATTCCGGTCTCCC DNA 2: TGGTGGCTACGACGGGATT the binder record lists binding signal as 0.0477 KA relative to UGCAUGU

Value of measured binding signal for the entry UGCUUGG (DNA:RNA) RNA: GGGAGACCGGAAUUCAGAUUGUCCUGCUUGGUUAAAUCCCGUCGUAGCCACCA DNA 1: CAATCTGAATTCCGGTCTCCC DNA 2: TGGTGGCTACGACGGGATT : 0.0481 KA relative to UGCAUGU

Item: UCGCAUA (DNA:RNA) RNA: GGGAGACCGGAAUUCAGAUUGUCCUCGCAUAUUAAAUCCCGUCGUAGCCACCA DNA 1: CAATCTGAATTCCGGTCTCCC DNA 2: TGGTGGCTACGACGGGATT | binding signal: 0.00838 KA relative to UGCAUGU
